target: Peptide 5: Biotin-…-[Tyr(PC)]-acid; experiment: scFv ELISA
Sequence (peptide, as listed by the source): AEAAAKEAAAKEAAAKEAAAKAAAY
readout_label: OD450 (OD450)
Please reply with the bare figure in OD450 and do not write the unit itself.

| binder | readout_label | meas_value |
| --- | --- | --- |
| PcOxP_DB01_A08 (scFv, V domains shown, scFv in periplasmic extract) VH: EVQLLESGGGLVQPGGSLRLSCAASGFTQSDFYMEWVRQAPGKGLEWVAAIRNKANSYTTEYADSVKGRFTISRDNSKNTLYLQMNSLRAEDTAVYYCARDYYGSSYWYFDVWGQGTLVTVSS VL: DIVMTQSPDSLAVSLGERATINCTASESVYSSKNKKHYLAWYQQKPGQPPKLLIYGASNRYIGVPDRFSGSGSGTDFTLTISSLQAEDVAVYYCAQFYSYPLTFGGGTKVEIK | OD450 | 1.12 |

Request: Give its OD450 value. Item: PcOxP_DB04_G08 (scFv, V domains shown, scFv in periplasmic extract) VH: EVQLLESGGGLVQPGGSLRLSCAASGFTGSDFYMEWVRQAPGKGLEWVAASRNKANDYTTEYADSVKGRFTISRDNSKNTLYLQMNSLRAEDTAVYYCARDYYGSSYWYFDVWGQGTLVTVSS VL: DIVMTQSPDSLAVSLGERATINCTASESLYSSKHKVHYLAWYQQKPGQPPKLLIYGASNRYQGVPDRFSGSGSGTDFTLTISSLQAEDVAVYYCAQFYWYPLTFGGGTKVEIK
Response: 1.67

Request: Look at this binder and give its reported OD450. PcOxP_DB02_B12 (scFv, V domains shown, scFv in periplasmic extract) VH: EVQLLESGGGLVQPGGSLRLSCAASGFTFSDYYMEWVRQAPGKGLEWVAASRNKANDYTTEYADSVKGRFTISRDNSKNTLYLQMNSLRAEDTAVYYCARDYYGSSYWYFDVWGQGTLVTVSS VL: DIQMTQSPSSLSASVGDRVTITCTASESLYSSKHKVHYLAWYQQKPGKAPKLLIYGQSNRYIGVPSRFSGSGSGTDFTLTISSLQPEDFATYYCAQFYSYPLTFGGGTKVEIK
Response: 1.34

Request: Look at this binder and give its reported OD450. PcOxP_DB02_F10 (scFv, V domains shown, scFv in periplasmic extract) VH: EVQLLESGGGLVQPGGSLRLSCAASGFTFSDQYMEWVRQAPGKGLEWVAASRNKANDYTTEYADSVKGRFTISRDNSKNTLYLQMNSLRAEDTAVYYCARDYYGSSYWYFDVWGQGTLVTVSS VL: DIVMTQSPDSLAVSLGERATINCTSSQSVLSSKHNKNYLAWYQQKPGQPPKLLIYGASNRYWGVPDRFSGSGSGTDFTLTISSLQAEDVAVYYCAQFYSYPLTFGGGTKVEIK
Response: 1.2

Request: Which OD450 value is on record for PcOxP_DB02_E03 (scFv, V domains shown, scFv in periplasmic extract) VH: EVQLLESGGGLVQPGGSLRLSCAASGFTFSDYYMEWVRQAPGKGLEWVAASRWKANDYTTEYADSVKGRFTISRDNSKNTLYLQMNSLRAEDTAVYYCARDYYGSSQWYFDVWGQGTLVTVSS VL: DIVMTQSPDSLAVSLGERATINCTASESLYSSKHKKNYLAWYQQKPGQPPKLLIYGASWRYIGVPDRFSGSGSGTDFTLTISSLQAEDVAVYYCAQFYSYPLTFGGGTKVEIK ?
Response: 0.75

Request: State the recorded OD450 for this entry: PcOxP_DB01_B07 (scFv, V domains shown, scFv in periplasmic extract) VH: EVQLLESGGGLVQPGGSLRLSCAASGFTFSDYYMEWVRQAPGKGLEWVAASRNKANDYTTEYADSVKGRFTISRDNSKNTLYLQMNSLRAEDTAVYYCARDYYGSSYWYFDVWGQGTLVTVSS VL: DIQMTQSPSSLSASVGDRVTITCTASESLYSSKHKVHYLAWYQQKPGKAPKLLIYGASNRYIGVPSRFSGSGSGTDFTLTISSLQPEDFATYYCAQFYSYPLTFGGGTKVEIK
Response: 1.36
